- Species: Rattus norvegicus
- assayComment: DrugMatrix - Regimen: Daily Repeat
- Format: toxicity, organism-based, Sprague-Dawley
- Design: regimen Daily Repeat, gender Male, age 6-8 weeks
- conditionSet: in vivo, po, 0 mg/kg, 72 h, tissue Blood, route oral GAVAGE, dose level Control, time 3 day, vehicle .5 % CMC
Response key: 1 means MONOCYTE >= 2%; 0 means MONOCYTE < 2%.

INSERT INTO assay_data (compound, categorylabel) VALUES
  ('COc1ccc(Cl)cc1C(=O)NCCc1ccc(S(=O)(=O)NC(=O)NC2CCCCC2)cc1 [GLYBURIDE]', 0),
  ('CCOc1cc(N)c(Cl)cc1C(=O)NCC1CN(Cc2ccc(F)cc2)CCO1 (stereo unspecified) [MOSAPRIDE]', 0),
  ('COc1cc(NC(C)CCCN)c2ncccc2c1 (stereo unspecified) [PRIMAQUINE]', 0),
  ('CCN1CCCC1CNC(=O)c1cc(S(N)(=O)=O)ccc1OC (stereo unspecified) [SULPIRIDE]', 0),
  ('CC(=O)Nc1ccc2c(c1)Cc1ccccc1-2 [2-ACETYLAMINOFLUORENE]', 0),
  ('O=C1c2ccccc2C(=O)C1c1ccccc1 [PHENINDIONE]', 1),
  ('CCN(CC)CCNC(=O)c1cc(Cl)c(N)cc1OC [METOCLOPRAMIDE]', 0),
  ('Cl.NC[C@H]1CC[C@H](C(=O)Oc2ccc(CCC(=O)O)cc2)CC1 [CETRAXATE HYDROCHLORIDE]', 1),
  ('O=C(O)CCc1nc(-c2ccccc2)c(-c2ccccc2)o1 [OXAPROZIN]', 0),
  ('CC(C)(C#N)c1cc(Cn2cncn2)cc(C(C)(C)C#N)c1 [ANASTROZOLE]', 0),
  ('CN(C)CCOC(c1ccccc1)c1ccccc1.Cn1c(=O)c2[nH]c(Cl)nc2n(C)c1=O [DIMENHYDRINATE]', 1);

---

- Species: Rattus norvegicus
- assayComment: DrugMatrix - Regimen: Daily Repeat
- Assay type: toxicity, organism-based, Sprague-Dawley
- Set-up: regimen Daily Repeat, gender Male, age 6-8 weeks
- conditionSet: in vivo, po, 0 mg/kg, 72 h, tissue Blood, route oral GAVAGE, dose level Control, time 3 day, vehicle .5 % CMC
experimentalReadout: HEMATOCRIT (%)

INSERT INTO assay_data (compound, experimentalreadout, recordednumber) VALUES
  ('Cc1cc2c(s1)Nc1ccccc1N=C2N1CCN(C)CC1', 'HEMATOCRIT', 34.43),
  ('COc1cc(/C=C/C(=O)O)ccc1O [FERULATE]', 'HEMATOCRIT', 34.05),
  ('CCN(CC)CCNC(=O)c1cc(Cl)c(N)cc1OC [METOCLOPRAMIDE]', 'HEMATOCRIT', 37.36);

---

- Species on record: Rattus norvegicus
- assayComment: DrugMatrix - Regimen: Daily Repeat
- Format: toxicity, organism-based, Sprague-Dawley
- Design: regimen Daily Repeat, gender Male, age 6-8 weeks
- conditionSet: in vivo, po, 0 mg/kg, 72 h, tissue Plasma, route oral GAVAGE, dose level Control, time 3 day, […]
The compounds listed here are annotated with their GLUCOSE.
experimentalReadout: GLUCOSE (mg/dL)

INSERT INTO results (compound, experimentalreadout, recordednumber) VALUES
  ('CO[C@H]1O[C@@H]2O[C@@]3(C)CC[C@H]4[C@H](C)CC[C@@H]([C@H]1C)[C@@]24OO3', 'GLUCOSE', 152.67),
  ('c1ccc2c(c1)Nc1ccccc1S2', 'GLUCOSE', 157.17),
  ('CCOC(=O)C1=C(C)NC(C)=C(C(=O)OCC)C1c1ccccc1/C=C/C(=O)OC(C)(C)C', 'GLUCOSE', 156.67),
  ('O=C(O)COC(=O)Cc1ccccc1Nc1c(Cl)cccc1Cl', 'GLUCOSE', 142.67),
  ('Cc1cccc(C)c1NC(=O)C(C)N (centres undefined) [TOCAINIDE]', 'GLUCOSE', 164.5),
  ('COC(=O)Nc1nc2ccc(C(=O)c3ccccc3)cc2[nH]1', 'GLUCOSE', 142.67),
  ('CC#C[C@]1(O)CC[C@H]2[C@@H]3CCC4=CC(=O)CCC4=C3[C@@H](c3ccc(N(C)C)cc3)C[C@@]21C', 'GLUCOSE', 170.5),
  ('COc1ccccc1OCCNCC(O)COc1cccc2[nH]c3ccccc3c12 (centres undefined)', 'GLUCOSE', 142.67),
  ('Oc1ncnc2[nH]ncc12', 'GLUCOSE', 151.83);

---

- Organism: Rattus norvegicus
- assayComment: DrugMatrix - Regimen: Daily Repeat
- Type: toxicity, organism-based, Sprague-Dawley
- Design: regimen Daily Repeat, gender Male, age 6-8 weeks
- conditionSet: in vivo, po, 0 mg/kg, 72 h, tissue Blood, route oral GAVAGE, dose level Control, time 3 day, vehicle .5 % CMC
The molecules listed here are annotated with their EOSINOPHIL.
experimentalReadout: EOSINOPHIL (%)

INSERT INTO results (molecule, experimentalreadout, recordednumber) VALUES
  ('O=C(O)CCc1nc(-c2ccccc2)c(-c2ccccc2)o1', 'EOSINOPHIL', 0),
  ('CCN1CCCC1CNC(=O)c1cc(S(N)(=O)=O)ccc1OC (stereo unspecified) [SULPIRIDE]', 'EOSINOPHIL', 0),
  ('NC(=O)NC(=O)Cc1ccccc1 [PHENACEMIDE]', 'EOSINOPHIL', 0.17),
  ('CCN(CC)CCNC(=O)c1cc(Cl)c(N)cc1OC [METOCLOPRAMIDE]', 'EOSINOPHIL', 0.4),
  ('NCC(CC(=O)O)c1ccc(Cl)cc1 (stereo unspecified)', 'EOSINOPHIL', 1),
  ('CN(C)CCC=C1c2ccccc2COc2ccccc21 [DOXEPIN]', 'EOSINOPHIL', 0.33),
  ('CC(C)(C#N)c1cc(Cn2cncn2)cc(C(C)(C)C#N)c1', 'EOSINOPHIL', 0),
  ('COc1ccc(Cl)cc1C(=O)NCCc1ccc(S(=O)(=O)NC(=O)NC2CCCCC2)cc1 [GLYBURIDE]', 'EOSINOPHIL', 0),
  ('CCOc1cc(N)c(Cl)cc1C(=O)NCC1CN(Cc2ccc(F)cc2)CCO1 (stereo unspecified) [MOSAPRIDE]', 'EOSINOPHIL', 1),
  ('CCN1CCN(c2cc3c(cc2F)c(=O)c(C(=O)O)cn3C2CC2)CC1', 'EOSINOPHIL', 0.4),
  ('CN(C)CCOC(c1ccccc1)c1ccccc1.Cn1c(=O)c2[nH]c(Cl)nc2n(C)c1=O [DIMENHYDRINATE]', 'EOSINOPHIL', 0.17),
  ('CCN1C[C@]2(COC)[C@H](O)C[C@H](OC)[C@@]34[C@@H]5C[C@@]6(O)[C@H](OC(=O)c7ccccc7)[C@@H]5[C@@](OC(C)=O)([C@@H]([C@H](OC)[C@H]23)[C@@H]14)[C@@H](O)[C@@H]6OC', 'EOSINOPHIL', 0.46),
  ('Nc1ccc(C(=O)O)c(O)c1', 'EOSINOPHIL', 0),
  ('COc1cc(NC(C)CCCN)c2ncccc2c1 (stereo unspecified)', 'EOSINOPHIL', 0),
  ('O=C1c2ccccc2C(=O)C1c1ccccc1', 'EOSINOPHIL', 0.46),
  ('CC(=O)Nc1ccc2c(c1)Cc1ccccc1-2', 'EOSINOPHIL', 1);

---

The compounds listed here are annotated with their BLOOD UREA NITROGEN.
- Species: Rattus norvegicus
- assayComment: DrugMatrix - Regimen: Daily Repeat
- Type: toxicity, organism-based, Sprague-Dawley
- Parameters: regimen Daily Repeat, gender Male, age 6-8 weeks
- conditionSet: in vivo, po, 0 mg/kg, 120 h, tissue Plasma, route oral GAVAGE, dose level Control, time 5 day, […]
experimentalReadout: BLOOD UREA NITROGEN (mg/dL)

INSERT INTO measurements (compound, recordednumber) VALUES
  ('CCOC(=O)C1=C(C)NC(C)=C(C(=O)OCC)C1c1ccccc1/C=C/C(=O)OC(C)(C)C', 14),
  ('Cc1cccc(C)c1NC(=O)C(C)N (centres undefined) [TOCAINIDE]', 13.67),
  ('COC(=O)Nc1nc2ccc(C(=O)c3ccccc3)cc2[nH]1', 14.17),
  ('Oc1ncnc2[nH]ncc12', 15.67),
  ('CCC(C)(C)C(=O)O[C@H]1C[C@@H](C)C=C2C=C[C@H](C)[C@H](CC[C@@H]3C[C@@H](O)CC(=O)O3)[C@H]21', 14.83),
  ('COc1ccccc1OCCNCC(O)COc1cccc2[nH]c3ccccc3c12 (centres undefined)', 14.17),
  ('O=C(O)COC(=O)Cc1ccccc1Nc1c(Cl)cccc1Cl', 14.17),
  ('c1ccc2c(c1)Nc1ccccc1S2', 13.5),
  ('CS(=O)(=O)c1ccc(C2=C(c3ccccc3)C(=O)OC2)cc1', 13.5);
